testedOn: T1, hCTLA-4 protein (human, UniProt P16410 36-161)
T1 construct: human CTLA-4 protein, soluble recombinant protein; The MST methods speak of a 'Red-NHS647 dye-labelled protein' without naming it; also called human CTLA-4 protein
T1 sequence (looked up): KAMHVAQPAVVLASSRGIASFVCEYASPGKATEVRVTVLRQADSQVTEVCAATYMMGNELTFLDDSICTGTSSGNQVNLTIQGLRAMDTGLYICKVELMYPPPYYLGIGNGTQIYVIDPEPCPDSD
protocolDescription: MST; Monolith NT.115; peptides first diluted to 400 μmol/L in MST buffer, 16 twofold dilutions; equal volumes of Red-NHS647 dye-labelled protein and peptide, room temperature 5 min, standard capillaries
conditionSet: both partners purified
observationType: Kd (µM)
Numbers only, in µM.

// below: answered binders
WGHSHFSHWKGR (12-mer selected from the Ph.D.-12 phage display peptide library on hCTLA-4; also called LC4 peptide; source: synthetic peptide (solid phase Fmoc synthesis, RP-HPLC)) [LC4]    6.86
RHHSSNPRDTAP (12-mer selected from the Ph.D.-12 phage display peptide library on hCTLA-4; source: synthetic peptide (solid phase Fmoc synthesis, RP-HPLC)) [LC8]    8.82
LDRPSSLAHLAS (12-mer selected from the Ph.D.-12 phage display peptide library on hCTLA-4; source: synthetic peptide (solid phase Fmoc synthesis, RP-HPLC)) [LC7]    2.14

Now consider the entry below.
The binder identified as SWHWHTHVRHQM (12-mer selected from the Ph.D.-12 phage display peptide library on hCTLA-4; source: synthetic peptide (solid phase Fmoc synthesis, RP-HPLC)) [LC3] registered its Kd at 0.04
